Target: T1, human IL-10 receptor (hIL-10R alpha and beta chains) on HEK-Blue IL-10 reporter cells (human, UniProt Q13651 22-578; Q08334 20-325)
T1 sequence 1: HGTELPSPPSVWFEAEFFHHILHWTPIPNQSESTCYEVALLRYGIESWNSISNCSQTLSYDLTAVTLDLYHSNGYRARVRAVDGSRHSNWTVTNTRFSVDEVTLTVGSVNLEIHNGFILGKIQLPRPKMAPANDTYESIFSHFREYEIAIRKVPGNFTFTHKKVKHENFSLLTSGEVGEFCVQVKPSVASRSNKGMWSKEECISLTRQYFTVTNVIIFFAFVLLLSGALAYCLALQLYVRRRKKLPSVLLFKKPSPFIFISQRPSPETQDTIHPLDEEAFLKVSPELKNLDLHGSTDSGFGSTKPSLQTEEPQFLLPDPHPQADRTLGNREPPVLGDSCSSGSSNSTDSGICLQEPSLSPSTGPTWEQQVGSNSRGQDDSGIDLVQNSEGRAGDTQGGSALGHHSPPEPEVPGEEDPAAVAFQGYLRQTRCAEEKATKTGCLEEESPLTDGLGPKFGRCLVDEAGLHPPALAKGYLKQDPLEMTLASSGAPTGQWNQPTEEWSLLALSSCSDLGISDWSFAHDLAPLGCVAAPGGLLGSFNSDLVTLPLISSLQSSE
T1 sequence 2: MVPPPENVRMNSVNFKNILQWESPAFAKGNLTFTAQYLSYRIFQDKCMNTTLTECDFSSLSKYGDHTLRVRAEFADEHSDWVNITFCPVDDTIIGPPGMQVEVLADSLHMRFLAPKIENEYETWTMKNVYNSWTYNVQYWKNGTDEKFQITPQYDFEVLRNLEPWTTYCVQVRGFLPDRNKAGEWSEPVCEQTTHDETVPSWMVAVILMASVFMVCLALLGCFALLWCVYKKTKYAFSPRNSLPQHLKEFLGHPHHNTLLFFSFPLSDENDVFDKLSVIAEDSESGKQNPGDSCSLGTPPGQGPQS
Assay: cell-based or functional assay
value-type: Abs 630 (100 nM) (Abs 630)
Provide only the numeric value, understood in Abs 630.

Give the measured Abs 630 (100 nM) of IL10R binding molecule of SEQ ID NO: 274 (bispecific antibody) QVQLQESGGGSVQAGGSLRLSCAASGYTYSMYCMGWFRQAPGKEREGVAQINSDGSTSYADSVKGRFTISKDNAKNTLYLQMNSLKPEDTAMYYCAADSRVYGGSWYERLCGPYTYEYNYWGQGTQVTVSSGGGSQVQLQESGGGSVEAGGSLRLSCAASGYTHSSYCMGWFRQAPGKEREGVAAIDVDGSTTYADSVKGRFTISKDNAKNTLYLQMNSLKPEDTGMYYCAAEFADCSSNYFLPPGAVRYWGQGTQVTVSSASHHHHHH . 0.37
